tested on: SNB-19 CNS; experiment: NCI tumour cell line growth inhibition, 48 h
# TGI per entry
Please state the figure in µM; there is no need to write the unit.

> print(dat)
                                   compound  reported.endpoint  value.measured
1  CCN(CC)CCC(CNc1c(C)cnc2cc(Cl)ccc12)c1ccc(Cl)c(Cl)c1 (stereo not given)                TGI              18

Next up:
Challenge: Reported TGI for CCOc1cc(CCNC)c2c(ccc3ccc(OC)c(O)c32)c1OC : what is it?
Response given: 30.1

* * *

system: TK-10 renal; experiment: NCI tumour cell line growth inhibition, 48 h; in the data active = GI50 below about 0.43 µM; inactive = the rest
// allowed return values: y for active, n for inactive

Illustrative cases are given below, each with its answer.
> print(dat)
                               smiles.entry  label.class
1  COc1ncc(-c2ccc3ncnc(Nc4cccc(Cl)c4)c3c2)cc1NS(C)(=O)=O            y
2     Nc1nc(N)c2cc(S(=O)(=O)c3ccccc3)ccc2n1            n

# next compound below
Challenge: Each compound tested received a call. Report the one for COc1cc(NC(=O)c2cc3ccccc3cc2O)c(OC)cc1Cl .
Response given: n

* * *

tested on: NCI-H226 lung; assay: NCI tumour cell line growth inhibition, 48 h
Outcome: condition met for TGI of at least 40 µM; condition not met for anything lower.

Illustrative cases are given below, each with its answer.
> print(dat)
                                   compound        label.class
1  CC(C)=CC1(C)/C(=N\O)C(C)(CC(C)C)C(=O)N1O (stereo unspecified)      condition met
2  COc1cc([N+](=O)[O-])cc2c1NC(=O)C2(C)SC (stereo unspecified)      condition met
3  N#CC(C#N)[C@@H]1CCC=C(Sc2ccccc2)[C@H]1Sc1ccccc1  condition not met
4  CC12OC(C(=O)C13CCC3)C1C(=O)c3c(O)ccc(O)c3C(=O)C12 (stereo unspecified)      condition met

Challenge: Decide: TGI of NC1=CC(=O)C(=O)c2ccccc21 >= 40 µM?
Response given: condition met

Challenge: Record: COc1cc(CO)cc2c1[nH]c1ccccc12
Response given: condition not met

* * *

tested on: NCI-H522 lung; assay: NCI tumour cell line growth inhibition, 48 h; in the data active = GI50 below about 0.43 µM; inactive = the rest
// allowed return values: active, inactive

Illustrative cases are given below, each with its answer.
> print(dat)
                                   molecule  label.class
1  CC(=O)OCCC/C(=C/c1cc2ccccc2c2ccccc12)[N+](=O)[O-]       active
2  Cc1nc2sc(C(=O)Nc3cccc(Cl)c3C)c(N)c2cc1C(O)c1ccccc1 (stereo not given)       active
3  CCC1C[N+]2=C(c3cc(OC)c(OC)cc3CC2)c2c1cc1n2CCc2cc(OC)c(OC)cc2-1 (stereo not given)     inactive
4     CCSc1nnc(-c2ccc3ccccc3c2O)n1-c1ccccc1     inactive
5  COc1ccc(-c2cncn2-c2ccc(-c3nc4cc(OC)c(OC)c(OC)c4s3)cc2)cc1N     inactive
6  COc1ccc(OC)c(-c2nc3sc(C)cn3c2/C=C2\C(=O)N(C)c3ccccc32)c1     inactive
7  O=C1c2ccccc2-c2c1c1ccc3ccccc3c1n2-c1ccccc1     inactive
8  CCCCc1n(Cc2ccc3ccccc3n2)cc[n+]1Cc1ccc2ccccc2c1     inactive
9     COc1ccc2cn3c4ccc(O)cc4[nH]c(=O)c3c2c1       active

# next molecule below
Challenge: Each molecule tested received a call. Report the one for Cc1ccc(Nn2c(SCC(=O)Nc3nc(-c4ccccc4)cs3)nc(C)c2C)cc1 .
Response given: inactive

* * *

tested on: MDA-MB-435; assay: NCI tumour cell line growth inhibition, 48 h
reported.endpoint: TGI

Solved cases below.
> print(dat)
                                   molecule  value.measured
1  CCOC(=O)/C=C(\C(=O)OCC)n1cc(C)c(=O)n(Cc2cn(COCCOC(C)=O)nn2)c1=O         28.2 µM
2  CCOC(=O)CCCOc1cc(-c2ccccc2F)nc2cc3c(cc12)OCO3        > 100 µM
3          CNc1ccc(Cl)cc1C(=O)N1CCC[C@H]1CO        > 100 µM
4                  NC1=CC(=O)C(=O)c2ccccc21         3.41 µM
5  N#CC(C#N)[C@@H]1CCC=C(Sc2ccccc2)[C@H]1Sc1ccccc1         4.53 µM
6    COc1ccc(OC)c2c1ccc1c(C)c3ccccc3c(C)c12        > 100 µM
7          OCCCN=C1N=C(Cl)/C(=C\c2ccccc2)N1        > 100 µM
8  CN1CCN(c2ccc(NC(=O)c3cncnc3Nc3ccc4c(ccn4Cc4cccc(F)c4)c3)cc2)CC1          1.2 µM

Challenge: Reported TGI for COC(=O)C1OC(SCCN)C(O)C(O)C1O (stereo unspecified) : what is it?
Response given: > 100 µM

Challenge: Record: CNC(=O)OCC1=C(COC(=O)NC)CN(c2ccc(OC)cc2)C1
Response given: > 100 µM

Challenge: Record: N#CC1=C(N)Oc2c(ccc3cccnc23)C1c1ccccc1 (stereo unspecified)
Response given: 0.661 µM

* * *

test system: NCI-H226 lung; experiment: NCI tumour cell line growth inhibition, 48 h
# TGI per entry
Please state the figure in µM; there is no need to write the unit.

Solved cases below.
> print(dat)
                                   compound  value.measured
1  c1ccc(C[N+]23C(CC[C@H]2c2ccccc2)CC[C@H]3c2ccccc2)cc1 (some centres undefined)            87.8
2  COC(=O)[C@]12CC[C@@H](C)[C@H](C)[C@@H]1C1=CC[C@@H]3[C@@]4(C)C(C=O)=C[C@@](C)(COC(=O)c5ccco5)C4=CC[C@@]3(C)[C@]1(C)CC2            7.79
3  COC(=O)C(Br)(C(=O)OC)C(Br)C(Br)C(Br)c1ccccc1 (centres undefined)            5.71

Next up:
Challenge: Reported TGI for CCN1C(=O)N[C@H]2[C@@H]3NC(=O)c4ccc(Cl)n4[C@@H]3C[C@]21O : what is it?
Response given: 5.7

* * *

tested on: NCI-H226 lung; test: NCI tumour cell line growth inhibition, 48 h; in the data active = GI50 below about 0.43 µM; inactive = the rest
// allowed return values: 1 for active, 0 for inactive

compound	label.class
Nc1n[nH]c2cc(F)c([C@@H]3Nc4c(F)cc5[nH]ncc5c4[C@H]4C5CCC(C5)[C@@H]34)cc12 (some centres undefined)	1
O=C(/C=C/c1cc(O)ccc1O)c1ccc(Cl)cc1	0
Fc1cccc(-c2nc(-c3c[nH]c4ncccc34)cs2)c1	0
COc1ccc(C#CC2=C(Br)C(=O)OC2)cc1	0
COc1ccc(/C=C\c2cc(OC)c(OC)c(OC)c2)cc1N/C=C\C(=O)c1c[nH]c2ccccc12	1

Challenge: Each compound tested received a call. Report the one for NC1=CC(=O)C(=O)c2ccccc21 .
Response given: 0

Challenge: Record: C=C(C)[C@@H]1CC[C@]2(COC(=O)c3ccccc3C(=O)O)CC[C@]3(C)[C@H](CC[C@@H]4[C@@]5(C)CC[C@H](OC(=O)c6ccccc6C(=O)O)C(C)(C)[C@@H]5CC[C@]43C)[C@@H]12
Response given: 0

Challenge: Record: Clc1ccc2c(NCCNc3nc(N4CCCCC4)nc4ccccc34)ccnc2c1
Response given: 0

Challenge: Record: O=C1Nc2cc(-c3ccc(O)cc3)ccc2/C1=C/c1ccc[nH]1
Response given: 0

* * *

tested on: EKVX NSCLC; experiment: NCI tumour cell line growth inhibition, 48 h; in the data active = GI50 below about 0.43 µM; inactive = the rest
// allowed return values: active, inactive

Illustrative cases are given below, each with its answer.
> print(dat)
                                   compound  label.class
1    CCN(CC)CCOc1ccccc1-n1c(C)ccc1-c1ccccc1     inactive
2  COc1cc2c3c(n(CCCN=[N+]=[N-])c(=O)c2cc1OC)-c1ccc(NC(C)=O)cc1C3=O     inactive
3  Cc1ccc(Nn2c(SCC(=O)Nc3nc(-c4ccccc4)cs3)nc(C)c2C)cc1     inactive
4  CCSc1nc(N)c(C#N)c(-c2ccc(OC)c(OC)c2)c1C#N     inactive
5  Cc1nc2sc(C(=O)Nc3cccc(Cl)c3C)c(N)c2cc1C(O)c1ccccc1 (stereo unspecified)       active
6  CCOC(=O)CC1C(CNC(=O)NC)OC(n2cnc3c(NC(=O)Nc4ccccc4)ncnc32)C1O[Si](C)(C)C(C)(C)C (stereo unspecified)     inactive
7  COc1ccc(C(=O)c2cc(C)c(OC)c(C)c2)c(OC)c1OC(=O)C(Cl)Cl       active
8  NC1=C(/C(N)=N/O)C(c2ccccc2)c2ccc3ccccc3c2O1 (stereo unspecified)     inactive

Challenge: Each compound tested received a call. Report the one for N#Cc1cc2c(=S)[nH]c(=S)[nH]c2nc1SCc1ccccc1 .
Response given: inactive

Challenge: Record: CCCCc1n(Cc2ccc3ccccc3n2)cc[n+]1Cc1ccc2ccccc2c1
Response given: inactive

Challenge: Record: CC12OC(C(=O)C13CCC3)C1C(=O)c3c(O)ccc(O)c3C(=O)C12 (stereo unspecified)
Response given: inactive

Challenge: Record: COC(=O)C[C@@H]1CC=CC(=O)/C1=C(O)/C=C/c1ccccc1
Response given: inactive

Challenge: Record: Clc1ccc2c(NCCNc3nc(N4CCCCC4)nc4ccccc34)ccnc2c1
Response given: inactive

Challenge: Record: COc1ccccc1N1CCN(CC(O)Cn2c(=O)c3c(OC)nc(C)cc3c(=O)n2-c2ccccc2)CC1 (stereo unspecified)
Response given: inactive

Challenge: Record: C=CC(=O)OCCCS(=O)(=O)[O-].C=CC(=O)OCCCS(=O)(=O)[O-].NC1CCCCC1N.[Pt+4]
Response given: inactive

Challenge: Record: COc1cc(-c2cn(-c3ccc(F)cc3)c(=O)[nH]2)cc(OC)c1OC
Response given: inactive
